# Assay target: LILRA5 (human (not printed on the sheet), UniProt A6NI73)
# Sequence (A6NI73 42-268 limits assumed): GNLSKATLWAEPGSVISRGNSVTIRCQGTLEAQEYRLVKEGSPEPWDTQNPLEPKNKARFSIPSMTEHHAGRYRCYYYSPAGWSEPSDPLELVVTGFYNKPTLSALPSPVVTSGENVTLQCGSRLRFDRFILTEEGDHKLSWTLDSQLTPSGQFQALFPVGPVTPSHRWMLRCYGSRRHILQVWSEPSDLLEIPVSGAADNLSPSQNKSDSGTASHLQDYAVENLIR
# Test summary: LILR reporter cells on coated antibody, GFP positive (%)

>  <Binder>
h193 antibody No. 19 (h193-H3 / h193-K1) (antibody, V domains shown) VH: EVQLVESGGGLVQPGGSLRLSCAASGFSLSSSYWISWVRQAPGKGLEWIGSIDSGSVGITYYATWAKGRFTISRDNSKNTLYLQMNSLRAEDTAVYYCARHGDNWALDLWGQGTLVTVSS VL: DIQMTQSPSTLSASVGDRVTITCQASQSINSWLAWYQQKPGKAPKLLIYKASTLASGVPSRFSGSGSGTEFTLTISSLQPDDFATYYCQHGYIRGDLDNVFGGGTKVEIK

>  <binding result>
no binding

$$$$
>  <Binder>
h193 antibody No. 24 (h193-H4 / h193-K2) (antibody, V domains shown) VH: EVQLVESGGGLVQPGGSLRLSCAASGFSLSSSYWISWVRQAPGKGLEWVSSIDSGSVGITYYATWAKGRFTISRDNSKNTLYLQMNSLRAEDTAVYYCARHGDNWALDLWGQGTLVTVSS VL: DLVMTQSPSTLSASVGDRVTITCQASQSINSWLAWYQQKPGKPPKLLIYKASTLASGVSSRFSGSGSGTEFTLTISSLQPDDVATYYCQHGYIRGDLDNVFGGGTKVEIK

>  <binding result>
no binding

$$$$
>  <Binder>
h193 antibody No. 23 (h193-H4 / h193-K1) (antibody, V domains shown) VH: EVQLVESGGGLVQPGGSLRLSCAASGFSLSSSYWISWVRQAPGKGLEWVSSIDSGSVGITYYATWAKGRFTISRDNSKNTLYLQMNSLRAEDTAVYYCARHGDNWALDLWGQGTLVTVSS VL: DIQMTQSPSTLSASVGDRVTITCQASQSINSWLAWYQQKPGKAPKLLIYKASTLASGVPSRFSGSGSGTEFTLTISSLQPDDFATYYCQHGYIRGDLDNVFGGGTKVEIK

>  <binding result>
no binding

$$$$
